Experiment: Pharmacokinetics of ivacaftor and M1 in Sprague-Dawley rats with or without nisoldipine or nimodipine
Assay type: in vivo
Conditions: male, rat, plasma, po, ivacaftor 10 mg/kg gavage, nisoldipine 1 mg/kg or nimodipine 10 mg/kg 30 min before, n = 4, read-out: t1/2 of ivacaftor (converted)
OUTCOME_MEASURE: half-life (h)
One number for each entry, in h.

# input Retrieve half-life measured for CC(C)(C)c1cc(C(C)(C)C)c(NC(=O)c2c[nH]c3ccccc3c2=O)cc1O [Ivacaftor] and print it.
# output 12.2

* * *

Test system: ivacaftor metabolism in rat liver microsomes (RLM)
Assay: Screening of 79 drugs (100 μM) for inhibition of ivacaftor metabolism in RLM incubation
Type: in vitro ADME
Conditions: each drug 100 μM, 0.3 mg/mL RLM
OUTCOME_MEASURE: Metabolic rate (Mean ± SD, % of control)

1) COc1ccccc1Oc1c(NS(=O)(=O)c2ccc(C(C)(C)C)cc2)nc(-c2ncccn2)nc1OCCO; 131.49 ± 2.21 % of control
2) CCCCc1oc2ccc(NS(C)(=O)=O)cc2c1C(=O)c1ccc(OCCCN(CCCC)CCCC)cc1; 4.76 ± 0.94 % of control
3) O=C(O)[C@H]1O[C@@H](Oc2cc3oc(-c4ccccc4)cc(=O)c3c(O)c2O)[C@H](O)[C@@H](O)[C@@H]1O; 50.95 ± 0.08 % of control

Would you mind listing Metabolic rate (Mean ± SD, % of control) for each of the following compounds?
1. COCCOC(=O)C1=C(C)NC(C)=C(C(=O)OC(C)C)C1c1cccc([N+](=O)[O-])c1 (centres unmarked)
2. C=C[C@H]1C[N@@]2CC[C@H]1C[C@@H]2[C@@H](O)c1ccnc2ccc(OC)cc12
3. CCCNCC(O)COc1ccccc1C(=O)CCc1ccccc1 (centres unmarked)
4. CCc1cccc2c3c([nH]c12)C(CC)(CC(=O)O)OCC3 (centres unmarked)

# output
["7.84 ± 0.43 % of control", "37.44 ± 4.20 % of control", "54.95 ± 0.92 % of control", "98.19 ± 1.07 % of control"]

# input Identify Metabolic rate (Mean ± SD, % of control) associated with the compound `O=c1c(O)c(-c2ccc(O)cc2)oc2cc(O)cc(O)c12`
# output 66.02 ± 4.43 % of control

* * *

System: ivacaftor metabolism in rat liver microsomes (RLM)
Assay: Screening of 79 drugs (100 μM) for inhibition of ivacaftor metabolism in RLM incubation
Assay type: in vitro ADME
Details: each drug 100 μM, 0.3 mg/mL RLM
OUTCOME_MEASURE: Metabolic rate (Mean ± SD, % of control)

Give measured Metabolic rate (Mean ± SD, % of control) for every item shown.
1. CCOC(=O)C1=C(C)NC(C)=C(C(=O)OC)C1c1cccc(Cl)c1Cl (stereo not shown) [Felodipine]
2. COc1cc(C2Oc3cc([C@H]4Oc5cc(O)cc(O)c5C(=O)[C@@H]4O)ccc3OC2CO)ccc1O (stereo partly shown) [Silibinin]
3. O=C(O[C@@H]1Cc2c(O)cc(O)cc2O[C@@H]1c1cc(O)c(O)c(O)c1)c1cc(O)c(O)c(O)c1 [(-)-Epigallocatechin gallate]
4. O=C(O)/C=C/c1ccc(O)c(O)c1 [Caffeic acid]

# output
13.47 ± 1.71 % of control
54.73 ± 1.11 % of control
72.21 ± 13.75 % of control
106.41 ± 1.94 % of control
